tested on: Candida albicans IAM 4905; assay: Antifungal activity, agar-dilution MIC, organism No. 29; assay type: cell-based; details: Candida albicans, IAM4905; Organism No. 29, bouillon-agar; read-out: Minimum Inhibitory Concentration
The following compounds are shown together with reported log10(MIC) values.
measurement type: log10(MIC) (log10 of the value in µg/mL)

[C-]#[N+]C12CC3(/C=C/C(=O)Nc4ccc(Cl)cc4)OC3C1O2 (centres unmarked)
-0.41
[C-]#[N+]C12CC3(/C=C/C(=O)Nc4ccccc4OC)OC3C1O2 (centres unmarked)
0.50
[C-]#[N+]C12CC3(/C=C/C(=O)OCC(=O)c4ccc(C)cc4)OC3C1O2 (centres unmarked)
-0.10
[C-]#[N+]C12CC3(/C=C/C(=O)OCC(=O)c4ccc(Cl)cc4)OC3C1O2 (centres unmarked)
0.19
[C-]#[N+]C12CC3(/C=C/C(=O)N(C(=O)NC4CCCCC4)C4CCCCC4)OC3C1O2 (centres unmarked)
0.50
[C-]#[N+]C12CC3(/C=C/C(=O)OCC(C)C)OC3C1O2 (centres unmarked)
-0.70
[C-]#[N+]C12CC3(/C=C/C(=O)Nc4ccc(C(C)=O)cc4)OC3C1O2 (centres unmarked)
-0.41
[C-]#[N+]C12CC3(/C=C/C(=O)NC4C(=O)N5C4SC(C)(C)C5C(=O)OCC(=O)c4ccc(Br)cc4)OC3C1O2 (centres unmarked)
0.19
[C-]#[N+]C12CC3(/C=C/C(=O)Nc4ccc(N)cc4)OC3C1O2 (centres unmarked)
1.10
[C-]#[N+]C12CC3(/C=C/C(=O)OCC)OC3C1O2 (stereo not drawn) [Compound No. 2, ethyl β-substituted acrylate]
0.50
[C-]#[N+]C12CC3(/C=C/C(=O)Nc4ccccc4O)OC3C1O2 (centres unmarked)
1.10
[C-]#[N+]C12CC3(/C=C/C(=O)Nc4cccc(C(=O)OC)c4)OC3C1O2 (centres unmarked)
-0.10
[C-]#[N+]C12CC3(/C=C/C(=O)Nc4ccccc4Cl)OC3C1O2 (centres unmarked)
0.19
[C-]#[N+]C12CC3(/C=C/C(=O)NCc4ccccc4)OC3C1O2 (centres unmarked)
-0.70
[C-]#[N+]C12CC3(/C=C/C(=O)Nc4cccc(C)c4)OC3C1O2 (centres unmarked)
-0.11
[C-]#[N+]C12CC3(/C=C/C(=O)Nc4ccc(C(=O)O)cc4)OC3C1O2 (centres unmarked)
2.00
[C-]#[N+]C12CC3(/C=C/C(=O)N[C@@H](CC(=O)OC)C(=O)OC)OC3C1O2 (some centres unmarked)
2.00
[C-]#[N+]C12CC3(/C=C/C(=O)OCc4ccccc4[N+](=O)[O-])OC3C1O2 (centres unmarked)
-0.10
[C-]#[N+]C12CC3(/C=C/C(=O)OCC(=O)c4ccccc4)OC3C1O2 (centres unmarked)
-0.10
[C-]#[N+]C12CC3(/C=C/C(=O)O)OC3C1O2 (stereo not drawn) [α substituted acrylic acid, reference compound]
1.10
[C-]#[N+]C12CC3(/C=C/C(=O)N[C@@H](CCC(=O)OC)C(=O)OC)OC3C1O2 (some centres unmarked)
2.00
[C-]#[N+]C12CC3(/C=C/C(=O)Nc4cccc([N+](=O)[O-])c4)OC3C1O2 (centres unmarked)
0.50
[C-]#[N+]C12CC3(/C=C/C(=O)Nc4ccc(OC(C)C)cc4)OC3C1O2 (centres unmarked)
1.10
[C-]#[N+]C12CC3(/C=C/C(=O)OC)OC3C1O2 (centres unmarked)
0.80
[C-]#[N+]C12CC3(/C=C/C(=O)N4CCN(C)CC4)OC3C1O2 (centres unmarked)
0.19
[C-]#[N+]C12CC3(/C=C/C(=O)Nc4ccc(OCCC)cc4)OC3C1O2 (centres unmarked)
1.10
[C-]#[N+]C12CC3(/C=C/C(=O)NOC)OC3C1O2 (centres unmarked)
1.10
[C-]#[N+]C12CC3(/C=C/C(=O)OCC(=O)c4ccc(Br)cc4)OC3C1O2 (centres unmarked) [Compound No. 4, p-bromophenacylβ-substituted acrylate]
0.19
